All figures here come from patent US5565460A.

Test system: Haloperidol-induced catalepsy in mice
Experiment: Effect on haloperidol-induced catalepsy
Format: in vivo, male ddY mice
Details: 10 mg/kg, oral; rate of decrease in total score based on control group
parameter: Remission Rate

smi=Nc1nc2ccc(Cl)cc2c2nc(-c3ccco3)nn12 result=48%
smi=Nc1nc(Oc2ccccc2)nc2nc(-c3ccco3)nn12 result=80%
smi=Nc1nc(Oc2ccccc2)nc2cc(-c3ccco3)nn12 result=32%
smi=Nc1nc2nn(Cc3ccc(F)cc3)cc2c2nc(-c3ccco3)nn12 result=52%

* * *

Recorded measurements of Total Score (catalepsy), one per entry
System: Haloperidol-induced catalepsy in mice
Experiment: Effect on haloperidol-induced catalepsy
Assay type: in vivo, male ddY mice
Settings: 10 mg/kg, oral; total of five mice, 25 points at the full (control 25); not more than 20 effective
parameter: Total Score (catalepsy)

smi=Nc1nc2ccc(Cl)cc2c2nc(-c3ccco3)nn12 numeric_result=13
smi=Nc1nc(Oc2ccccc2)nc2cc(-c3ccco3)nn12 numeric_result=17
smi=Nc1nc2nn(Cc3ccc(F)cc3)cc2c2nc(-c3ccco3)nn12 numeric_result=12
smi=Nc1nc(Oc2ccccc2)nc2nc(-c3ccco3)nn12 numeric_result=5
